Recorded values, source ChEMBL document CHEMBL1201862.

Tested on: M19-MEL
Test: NCI tumour cell line growth inhibition, 48 h
The source made the active and inactive calls. No stated cut-off is given here; in the data, active = GI50 up to about 1.1 µM and inactive = higher.
Classes used: 1 (active), 0 (inactive)

- molecule: "C[Si](C)(C)OC1CC(=O)OC1n1cc(F)c(=O)[nH]c1=O (stereo not drawn)"
  label value: 0
- molecule: "Cc1nc2c(s/c(=N\\N)n2-c2ccccc2)c(=O)n1C"
  label value: 0
- molecule: "COc1cc2c3c(c1OC)/C(=N/OS(=O)(=O)c1ccc(C)cc1)CC3N(S(=O)(=O)c1ccc(C)cc1)CC2 (stereo not drawn)"
  label value: 0
- molecule: "CCOC(=O)N1CCc2cc(OC)c(OC)cc2/C1=C/c1ccc(OC)c(OC)c1"
  label value: 0
- molecule: "CC(C)(c1ccccc1)c1ccc(Oc2ccc3c(c2)-c2nc-3nc3[nH]c(nc4nc(nc5[nH]c(n2)c2ccc(Oc6ccc(C(C)(C)c7ccccc7)cc6)cc52)-c2cc(Oc5ccc(C(C)(C)c6ccccc6)cc5)ccc2-4)c2ccc(Oc4ccc(C(C)(C)c5ccccc5)cc4)cc32)cc1"
  label value: 0
- molecule: "S=P1(c2ccccc2)Nc2ccc(Cl)cc2N1 (stereo not drawn)"
  label value: 0
- molecule: "CC(=O)[O-].[O-]c1c(Cl)cc(Cl)cc1/C=N/Nc1ccccn1.[Zn+2]"
  label value: 1
- molecule: "C1C[N+]23CCC[N+]2(C1)CCC3 (stereo not drawn)"
  label value: 0
- molecule: "COc1ccc(C2=CN3CCC[C@H]3C=C2c2cc(O)c(OC)c(OC)c2)cc1OC"
  label value: 1
- molecule: "O=C1C(=O)C(Br)(Br)C(Br)=C1Br"
  label value: 0
- molecule: "CCN1C(=O)C(=CN)C(=O)N(CC)C1=O"
  label value: 0
- molecule: "CCCCCC(=O)N[C@H]1CCc2cc(OC)c(OC)c(OC)c2-c2ccc(SC)c(=O)cc21"
  label value: 1
- molecule: "Cc1nc([N+](=O)[O-])cn1CC(=N)N"
  label value: 0

---

System: T47D
Experiment: NCI tumour cell line growth inhibition, 48 h
Active and inactive are the calls of the source. Rule as the data show it: active = GI50 up to about 1.1 µM and inactive = higher.
Classes used: active, inactive

- compound: "COc1ccc(C2OC2C(=O)C23CC4CC(CC(C4)C2)C3)cc1 (stereo unspecified)"
  label value: "inactive"
- compound: "COc1cc2c[n+](C)c3c4ccccc4ccc3c2cc1OC"
  label value: "inactive"
- compound: "C=CCOC(=O)C[C@H](NC(=O)[C@H](Cc1ccc(O)cc1)NCC(F)(F)F)C(=O)OCC=C"
  label value: "inactive"
- compound: "CC(=O)NCCSC(=O)c1ccccc1"
  label value: "active"
- compound: "O=C1NC(=O)[C@@]2(CC[C@@H](O)C2)c2ccncc21 [SESBANINE]"
  label value: "inactive"
- compound: "Cc1cccc2oc3c(c(=O)c12)CC(O)C(C)(C)O3 (stereo unspecified)"
  label value: "inactive"
- compound: "CCOC(=S)SSSC(=S)OCC"
  label value: "inactive"
- compound: "COc1cc(C(c2cccc3ccccc23)N2C(=O)CCC2C(=O)O)cc(OC)c1OC (stereo unspecified)"
  label value: "inactive"
- compound: "C=C(CO)[C@H]1Oc2ccc(C(C)=O)cc2[C@@H]1O"
  label value: "inactive"
- compound: "O/N=C(\\CC(O)(C(F)(F)F)C(F)(F)F)c1cccc(Cl)c1"
  label value: "inactive"
- compound: "O=c1[nH]c(-c2ccc(Cl)cc2)cc2ccsc12"
  label value: "inactive"

---

Test system: KM12
Experiment: NCI tumour cell line growth inhibition, 48 h
Activity calls are given as the source filed them. No stated cut-off is given here; in the data, active = GI50 up to about 1.1 µM and inactive = higher.
Reported GI50 values are given for each entry in this list.

- compound: "C=CCO[C@H]1CC[C@@]2(C)C(CC[C@]3(C)C2CC=C2[C@@H]4[C@@H](C)C(C)CC[C@]4(C(=O)O)CCC23C)C1(C)C (some centres not stated)"
  GI50: "16.1 µM (inactive)"
- compound: "CCCCN1C(=O)CC2[C@@H]3CCc4cc(OC(C)=O)ccc4C3CC[C@]2(C)C1=O (some centres not stated)"
  GI50: "> 10 µM (inactive)"
- compound: "COc1ccc(NS(=O)(=O)c2ccc3ncn(NS(=O)(=O)c4ccc(I)cc4)c(=O)c3c2)cc1"
  GI50: "8.89 µM (inactive)"
- compound: "O=C(O)Cc1ccc(Nc2nc3cc(C(F)(F)F)ccc3nc2C(=O)O)cc1"
  GI50: "> 100 µM (inactive)"
- compound: "Cn1c(Sc2ccc(-c3cccnc3)n2C)ccc1-c1cccnc1"
  GI50: "18 µM (inactive)"
- compound: "CCN(CC)/N=N/c1c(C(N)=O)n[nH]c1C"
  GI50: "50 µM (inactive)"
- compound: "O=C1CCC2(c3ccc(Cl)cc3)Nc3cc(Cl)ccc3N12 (configuration not stated)"
  GI50: "12 µM (inactive)"
- compound: "COc1ccc(/C(CCl)=C(\\Nc2ccccc2)c2ccc(OC)c(OC)c2)cc1OC"
  GI50: "> 100 µM (inactive)"
- compound: "O=C1C=CC(=C(c2ccc(O)cc2)c2ccc(O)cc2)C=C1 [AURIN]"
  GI50: "12.8 µM (inactive)"
- compound: "Nc1nc(O)c(Br)c(-c2cccc([N+](=O)[O-])c2)n1"
  GI50: "> 100 µM (inactive)"
- compound: "Cc1ccnc2sc3ccccc3c(=O)c12"
  GI50: "53.7 µM (inactive)"
- compound: "O=C1C(=O)C(Br)(Br)C(Br)=C1Br"
  GI50: "12.9 µM (inactive)"

---

Test system: OVCAR-4
Assay: NCI tumour cell line growth inhibition, 48 h
Calls of active or inactive are those of the source. No stated cut-off is given here; in the data, active = GI50 up to about 1.1 µM and inactive = higher.
Classes used: class 1 = active, class 0 = inactive

- molecule: "ClCc1nn(-c2ccccc2)c(CCl)c1CCl"
  label value: "class 0"
- molecule: "COc1ccc(-c2nc(-c3ccc(OC)cc3)n(-c3ccccc3)n2)cc1"
  label value: "class 0"
- molecule: "COC(=O)[C@@H]1C[C@@]23CCCN4CC[C@@]5(c6cccc(OC)c6N(C=O)[C@]15CC2)[C@@H]43"
  label value: "class 0"
- molecule: "O=C1c2c(ccc3c2CCCC3)CC12Cc1ccc3c(c1C2=O)CCCC3"
  label value: "class 0"
- molecule: "Cn1c(Sc2ccc(-c3cccnc3)n2C)ccc1-c1cccnc1"
  label value: "class 0"
- molecule: "COc1cc2c[n+](C)c3c4ccccc4ccc3c2cc1OC"
  label value: "class 0"
- molecule: "COC(=O)CC1C2(C)C3=C(C)C(c4ccoc4)CC3OC2C2OC(=O)C3(C)C=CC(=O)C1(C)C23 (centres undefined)"
  label value: "class 0"
- molecule: "CC(O)c1cc2c(s1)C(=O)c1sccc1C2=O (centres undefined)"
  label value: "class 1"
- molecule: "COc1ccc2c(c1O)-c1c(OC)c(OC)cc3c1[C@H](C2)[N+](C)(C)CC3"
  label value: "class 0"
- molecule: "CN(C)c1ccc(NN=C2SC(=N\\c3ccccc3)/C(=N/c3ccccc3)S2)cc1"
  label value: "class 0"
- molecule: "C=C(C)c1nc(Oc2ccccc2)nc(Oc2ccccc2)n1"
  label value: "class 0"
- molecule: "Cc1ccc(-n2cc(-c3ccc(Cl)cc3)c3c2N=CN2N=C(c4ccco4)NC32)cc1 (centres undefined)"
  label value: "class 0"
- molecule: "CCSc1nc(-c2cccs2)nc2ccc(I)cc12"
  label value: "class 0"
- molecule: "O=C1c2nn(-c3ccccc3)nc2C(c2ccccc2)N1c1ccccc1 (centres undefined)"
  label value: "class 0"

---

Tested on: IGROV-1
Experiment: NCI tumour cell line growth inhibition, 48 h
Calls of active or inactive are those of the source. Cut-off read from the data, not from the text of the source: active = GI50 up to about 1.1 µM and inactive = higher.
Classes used: true (active), false (inactive)

- compound: "COc1ccc(CCCCl)c(C2=NCCc3ccccc32)c1"
  target: "IGROV-1"
  label value: "false"
- compound: "O=C1c2cc3c(cc2CC1Br)CCC3 (stereo unspecified)"
  target: "IGROV-1"
  label value: "false"
- compound: "CC(C)(C)OC(=O)N1C(C2=COc3ccccc3O2)=COc2ccccc21"
  target: "IGROV-1"
  label value: "false"
- compound: "N#CNc1nc(N)c(-c2ccc(Cl)cc2)c(C(=O)Nc2nccs2)n1"
  target: "IGROV-1"
  label value: "false"
- compound: "CC(C)c1[nH]nc(C(N)=O)c1/N=N/N(C)C"
  target: "IGROV-1"
  label value: "false"
- compound: "CCCC[P+](CCCC)(CCCC)C(C(=O)OC)C(C(=O)OC)=C1SC(C(=O)OC)=C(C(=O)OC)S1 (stereo unspecified)"
  target: "IGROV-1"
  label value: "false"
- compound: "CCOc1ccc(/C(C=O)=C(\\Cl)c2ccc(OC)c(OC)c2)cc1"
  target: "IGROV-1"
  label value: "false"
- compound: "NCC1OC(n2cnc3c(=O)[nH]c(N)nc32)C(O)C1O (stereo unspecified)"
  target: "IGROV-1"
  label value: "false"
- compound: "CC(C)(O)c1cc2c(cc1C(C)(C)O)-c1ccccc1-2"
  target: "IGROV-1"
  label value: "false"
- compound: "N[C@H](C(=O)O)[C@@H]1CC(Cl)=NO1 [ACIVICIN]"
  target: "IGROV-1"
  label value: "true"
- compound: "Cc1ccc(C)c(N2C(=O)C(=O)C(c3nc4ccccc4s3)/C(=N\\c3cccc4c(=O)[nH][nH]c(=O)c34)C2=O)c1 (stereo unspecified)"
  target: "IGROV-1"
  label value: "false"
